molecular target: rat cathepsin K (Rattus norvegicus, UniProt O35186); construct: The proform of cathepsin K was converted to mature cathepsin K by brief exposure to pH 4; Trichoplusia ni High Five cells (virus raised in Sf-9); assay: Cathepsin K inhibition assay, fluorogenic substrate Cbz-Phe-Arg-AMC, progress curve method; details: Table 2; rat recombinant enzyme, pH 5.5, 30° C., 10 μM substrate; read-out: rCat K Ki
Sequence (O35186 115-329): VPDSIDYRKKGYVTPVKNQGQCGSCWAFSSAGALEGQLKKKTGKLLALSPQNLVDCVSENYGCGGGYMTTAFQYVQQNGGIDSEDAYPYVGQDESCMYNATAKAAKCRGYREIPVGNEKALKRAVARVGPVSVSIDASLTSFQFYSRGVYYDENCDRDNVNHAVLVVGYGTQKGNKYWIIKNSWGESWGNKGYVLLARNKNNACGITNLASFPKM
pKi: −log10 of the molar value.
property-name: pKi

> print(dat)
                                   molecule  property.name  value.measured
1  CCCC[C@H](NC(=O)O[C@H](Cn1ccc(-c2ccc(C(F)(F)F)cc2)n1)C(C)(C)C)C(=O)C(=O)Nc1ccn[nH]1            pKi   9.00 to 11.00
2  CCCC[C@H](NC(=O)O[C@H](Cn1cnc2cc(Cl)c(Cl)cc21)C(C)(C)C)C(=O)C(=O)Nc1ccn[nH]1            pKi   9.00 to 11.00
3  CCCC[C@H](NC(=O)O[C@H](c1nnc(-c2ccc(C(F)(F)F)cc2)o1)C(C)(C)C)C(=O)C(=O)NN1CCOC1=O            pKi    7.00 to 9.00
4  CCCC[C@H](NC(=O)O[C@H](Cn1cnc(-c2ccc(C(F)(F)F)cc2)c1)C(C)(C)C)C(=O)C(=O)Nc1ccnn1C1CCC1            pKi    7.00 to 9.00
5  CCCC[C@H](NC(=O)O[C@H](Cc1nnc(-c2ccc(F)cc2)o1)C(C)(C)C)C(=O)C(=O)Nc1ccnn1C (stereo in doubt)            pKi    5.00 to 7.00
6  CCCC[C@H](NC(=O)O[C@H](Cn1cnc(-c2ccc(C(F)(F)F)cc2)c1)C(C)(C)C)C(=O)C(=O)Nc1ccn[nH]1            pKi   9.00 to 11.00
7  CCCC[C@H](NC(=O)O[C@H](c1nnc(-c2ccc(C(F)(F)F)cc2)o1)C(C)(C)C)C(=O)C(=O)Nc1ccn[nH]1            pKi    7.00 to 9.00

* * *

target: human cathepsin K (Homo sapiens); construct: The proform of cathepsin K was converted to mature cathepsin K by brief exposure to pH 4; made in house; host or cells: baculovirus; Trichoplusia ni High Five cells (virus raised in Sf-9); assay: Cathepsin K inhibition assay, fluorogenic substrate Cbz-Phe-Arg-AMC, progress curve method; type: biochemical; conditions: Table 1; human recombinant enzyme, pH 5.5, 30° C., 10 μM substrate; read-out: hCat K Ki
Sequence (P43235 115-329): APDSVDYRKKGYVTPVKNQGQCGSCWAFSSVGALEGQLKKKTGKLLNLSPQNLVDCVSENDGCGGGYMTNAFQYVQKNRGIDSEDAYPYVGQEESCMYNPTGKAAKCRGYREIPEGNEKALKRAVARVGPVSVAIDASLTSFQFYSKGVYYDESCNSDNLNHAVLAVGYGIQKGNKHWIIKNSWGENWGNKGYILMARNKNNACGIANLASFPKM
Examples of molecules with documented Ki follow.
property-name: Ki

> print(dat)
                             chemical.smiles  property.name   value.measured
 1  CCCC[C@H](NC(=O)O[C@H](Cn1cc(-c2ccc(C(F)(F)F)cc2)cn1)C(C)(C)C)C(=O)C(=O)Nc1ccn[nH]1             Ki     0.01 to 1 nM
 2  CCCC[C@H](NC(=O)O[C@@H](Cc1nnc(-c2ccc(C(F)(F)F)cc2)o1)C(C)(C)C)C(=O)C(=O)N[C@H](C)c1ccccc1             Ki  100 to 10000 nM
 3  CCCC[C@H](NC(=O)O[C@@H](Cc1nnc(-c2ccccc2)o1)C(C)C)C(=O)C(=O)N[C@H](C)c1ccccc1             Ki  100 to 10000 nM
 4  CCCC[C@H](NC(=O)O[C@H](Cn1cnc(-c2ccc(C(F)(F)F)cc2)c1)C(C)(C)C)C(=O)C(=O)Nc1ccn[nH]1             Ki     0.01 to 1 nM
 5  CCCC[C@H](NC(=O)O[C@H](Cc1nnc(-c2ccccc2)o1)C(C)C)C(=O)C(=O)N[C@H](C)c1ccccc1             Ki     0.01 to 1 nM
 6  CCCC[C@H](NC(=O)O[C@@H](Cn1ccc(-c2ccc(C(F)(F)F)cc2)n1)C(C)(C)C)C(=O)C(=O)Nc1ccn[nH]1             Ki      1 to 100 nM
 7  CCCC[C@H](NC(=O)O[C@H](c1nnc(-c2ccncc2)o1)C(C)(C)C)C(=O)C(=O)Nc1ccn[nH]1             Ki     0.01 to 1 nM
 8  CCCC[C@H](NC(=O)O[C@H](Cn1cnc2cc(Cl)c(Cl)cc21)C(C)(C)C)C(=O)C(=O)Nc1ccn[nH]1             Ki     0.01 to 1 nM
 9  CCCC[C@H](NC(=O)O[C@H](c1nnc(-c2cccnc2)o1)C(C)(C)C)C(=O)C(=O)Nc1ccn[nH]1             Ki     0.01 to 1 nM
10  CCCC[C@H](NC(=O)O[C@H](Cn1cnc(-c2ccc(F)cc2)c1)C(C)(C)C)C(=O)C(=O)N[C@H](C)c1ccccc1             Ki     0.01 to 1 nM
